meta.source: patent US7589087B2

Biological target: human histamine H4 receptor (Homo sapiens)
Construct: membranes prepared
Experiment: Binding Assay on Recombinant Human Histamine H4 Receptor (3H-histamine competition, membranes of transfected SK-N-MC or COS7 cells); further: ligand 5 nM
pKi: −log10 of the molar value.
MEASURE NAME: pKi

Here are 5 molecules together with their reported answers.
SMILES STRING: Cc1c(F)ccc2[nH]c(-c3ccnc(NCCCCN4CCCN(C)CC4)c3)nc12
ASSAY VALUE: 8.30
//
SMILES STRING: CN1CCC(CCCNc2ccc(-c3nc4cc(Cl)ccc4[nH]3)cn2)CC1
ASSAY VALUE: 8.22
//
SMILES STRING: CN1CCC(CCCN(C)c2ccc(-c3nc4c(F)c(F)ccc4[nH]3)cn2)CC1
ASSAY VALUE: 7.43
//
SMILES STRING: Cc1cc(C)c2nc(-c3ccc(NCCCC4CCN(C)CC4)nc3)[nH]c2c1
ASSAY VALUE: 7.64
//
SMILES STRING: Cc1c(F)ccc2[nH]c(-c3ccc(N(CCCC4CCN(C)CC4)C(C)C)nc3)nc12
ASSAY VALUE: 6.14

A: Cc1cc(C)c2nc(-c3ccc(N(C)CCCC4CCN(C)CC4)nc3)[nH]c2c1
B: Cc1c(F)ccc2[nH]c(-c3ccc(NCCCN4CCN(C)CC4)nc3)nc12
Between these two entries, A and B , state which has the higher pKi. Kindly state the label of the option you pick.
A
(A: 7.92, B: 6.03)

a: CN1CCC(CCCC(=O)Nc2cc(-c3nc4cc(Cl)ccc4[nH]3)ccn2)CC1
b: COC(=O)c1ccc2[nH]c(-c3ccc(N(C)CCCC4CCN(C)CC4)nc3)nc2c1
Between these two entries, a and b , state which has the higher pKi. Kindly state the label of the option you pick.
b
(b: 6.38, a: 6.18)

A: Cc1ccc2[nH]c(-c3ccnc(NC(=O)CCCC4CCN(C)CC4)c3)nc2c1C
B: Cc1cc(Cl)cc2[nH]c(-c3ccc(NCCCC4CCN(C)CC4)nc3)nc12
C: Cc1ccc2[nH]c(-c3ccc(NCCCC4CCN(C)CC4)nc3)nc2c1C
D: Cc1c(F)ccc2[nH]c(-c3ccc(NCCCC4CCN(C)CC4)nc3)nc12
Arrange these molecules by their pKi, starting with the largest number. Lab note: record answer as labels in requested order.
B, D, C, A
